molecular target: F protein on infectious RSV strain A2 (human respiratory syncytial virus …, UniProt P03420 26-574); assay: cell-based or functional assay
Sequence (P03420 26-574): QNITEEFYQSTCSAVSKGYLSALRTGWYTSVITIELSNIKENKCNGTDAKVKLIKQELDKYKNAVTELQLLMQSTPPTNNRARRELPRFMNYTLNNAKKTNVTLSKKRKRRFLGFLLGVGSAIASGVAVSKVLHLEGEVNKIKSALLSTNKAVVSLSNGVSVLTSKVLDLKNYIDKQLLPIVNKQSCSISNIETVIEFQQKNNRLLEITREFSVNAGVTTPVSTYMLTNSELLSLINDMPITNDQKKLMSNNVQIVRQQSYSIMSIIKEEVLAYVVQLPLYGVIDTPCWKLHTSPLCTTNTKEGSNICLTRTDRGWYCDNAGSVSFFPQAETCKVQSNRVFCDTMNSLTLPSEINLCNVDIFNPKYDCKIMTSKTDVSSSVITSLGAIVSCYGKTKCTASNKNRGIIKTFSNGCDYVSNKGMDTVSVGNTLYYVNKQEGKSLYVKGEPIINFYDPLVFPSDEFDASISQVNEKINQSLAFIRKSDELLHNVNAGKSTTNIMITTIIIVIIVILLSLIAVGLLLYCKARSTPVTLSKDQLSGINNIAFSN
Neutralization (IC50; ng/mL) RSV A2, plaque-reduction assay for assorted binders

Check out these entries, answers already filled in.
mAb 14N4 (antibody, V domains shown) VH: QVQLVESGGGLIQPGGSLRLSCAVSGFTVSSKYMTWVRQAPGKGLEWVSVIYGGGSTYYADSVVGRFTISRDNSKNTLYLQMNSLRAEDTAVYYCASRLGVRATTGDLDYWGQGTLVTVSS VL: QIVMTQSPSTLSASVGDRVTITCRASQSISSWLAWYQQKPGKAPKLLIYDASSLESGVPSRFSGSGSGTEFTLTISSLQPDDFATYYCQQYNTYSWWTFGQGTKVEIK    695 ng/mL
mAb 9J5 (antibody, V domains shown) VH: QVQLVQSGAEVKKPGSSVTVSCKASGGSFTNYAFSWVRQAPGQGLEWMGGIIPLLNMPNYAQKFRGRVTISADQSTTTAYMELSRLTSEDTAIYFCARGGQVGDFIVLRHFDSWGQGTLVTVSS VL: TLSCRASESVSNYLAWYQQKPGQTPRLLIYGASTRATGIPARFSGSGSGSEFTLTISSLQSEDFAVYYCQQYNDWPRFSFGQGTKLEIK    > 100000 ng/mL
mAb 14C16 (antibody, V domains shown) VH: QVQLGESGPALVKPTQTLTLTCTFSGFSLSTSEMCVSWIRQPPGKALEWLALIDWDGDKFFSTSLQSRLTISKSPSNNQVVLTMTNMDPVDSGTYFCARSTVRRSSGYYYYVLDVWGQGTLVTVSS VL: QIVMTQSPSSLSASVGDRVTISCRASQSIGTYVNWYQHKPGKAPKVLISGASNLHSGVPSRFSGSGSGTDFTLTISSLQPEDFATYYCQQSYSPLTFGGGTTVEMK    > 100000 ng/mL
mAb 4B6 (antibody, V domains shown) VH: QVQLVQSGGGLAQPGRSLRLSCRASGFTFGDFNMNWFRQAPGKGLEWVGFIRRKAFGGATEYAASVKGRLTISRDDSKSIAYLQMNSLKTEDTAVYYCTRERGYVGSGGPFFDYWGQGTLVTVSS VL: QAVVTQPPSVSGAPGQRVTISCTGSSSNIGAGYDVHWYQQLPGTAPKLLIYGDSNRPSGVPDRFSGSSSGTSASLAITGLQAEDEADYYCQSYDNSLSGSVFGTGTKVTVL    > 100000 ng/mL
mAb 12I1 (antibody, V domains shown, Non-neutralizing, antigenic site VII) VH: QVQLVQSGGGVVQPGQSLRLSCAASGFSFSDYPIHWVRQAPGKGLEWVAGISYYGSNKFYADSVRGRFTISRDTSKNTFNLQMNSLKSEDTAVYYCARDGNPPRFLEYFDYWGQGTLVTVSS VL: QPVVTQPRSVSGSPGQSVTISCTGSSSDVGGYNFVSWYRHHPGKAPKLLIYHVTKRPSGVPDRFSGSKSGNTASLTISGLQAEDEADYYCCSYAGSYTYVLFGGGTKLTVL    > 100000 ng/mL

Then this binder:
Input line: Find the recorded Neutralization (IC50; ng/mL) RSV A2, plaque-reduction assay belonging to mAb 13A8 (antibody, V domains shown) VH: QVQLVESGGGVVQPGKSLRLSCAASGYIFSSYDMHWVRQAPGKGLEWVAVISFDGTTQHYADSVRGRFTVSRDNSQNTVFLQMNSLRPEDTAVYYCVKEYVIVSTFFDYWGQGTLVTVSS VL: DIVMTQSPSSLSASVGDRVTITCRASQGIRNALGWYQHKPGKAPKVLIYAASRLQSGVPSRFSGSGSGTDFTLTISSLQPEDFATYYCLQDFNYPWTFGHGTKVEIK and report it.
Output line: 55 ng/mL
